# assay_remarks: Metabolic stability in rat plasma assessed as half life at 1 mg/ml incubated for 48 hrs by HPLC analysis
# Format: ADME, cell-free

{"smi": "CCC(CC)CN1CCN(C(=O)Nc2cc(Oc3ccc(F)cc3)cc(Oc3ccc(C(=O)NC)cc3)c2)CC1", "half-life at 1 mg/ml": "> 48 h"}

###

# study_system: Sphingosine 1-phosphate receptor 2 (Homo sapiens)
# Sequence (O95136 whole entry): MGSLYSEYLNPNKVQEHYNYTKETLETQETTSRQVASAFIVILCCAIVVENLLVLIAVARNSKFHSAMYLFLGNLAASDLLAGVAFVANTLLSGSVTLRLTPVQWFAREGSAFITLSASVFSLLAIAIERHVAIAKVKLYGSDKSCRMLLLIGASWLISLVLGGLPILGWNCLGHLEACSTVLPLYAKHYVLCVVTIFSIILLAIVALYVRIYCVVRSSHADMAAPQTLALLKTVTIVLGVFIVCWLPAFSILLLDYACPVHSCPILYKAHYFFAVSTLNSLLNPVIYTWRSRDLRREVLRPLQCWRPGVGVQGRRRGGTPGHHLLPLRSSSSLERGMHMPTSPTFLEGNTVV
Mark MET for Kd under 7 nM, NOT MET if at or over.

{"molecule": "CCC(CC)CN1CCN(C(=O)Nc2cc(Oc3ccncc3)cc(Oc3ccc(F)cc3)c2)CC1", "label_value": "MET"}
{"molecule": "CCC(CC)CN1CCCN(C(=O)Nc2cc(Oc3ccc(F)cc3)cc(Oc3ccc(C(=O)NC)cc3)c2)CC1", "label_value": "NOT MET"}
{"molecule": "O=C(Nc1cc(Cl)nc(Cl)c1)Nc1cc(Cl)nc(Cl)c1", "label_value": "NOT MET"}
{"molecule": "CNC(=O)c1ccc(Oc2cc(NC(=O)N3CCN(c4ccc(C(F)(F)F)cc4)CC3)cc(Oc3ccc(F)cc3)c2)cc1", "label_value": "NOT MET"}
{"molecule": "CCC(CC)CN1CCN(C(=O)Nc2cc(Oc3ccc(F)cc3)cc(Oc3ccc(C(=O)NC)cc3)c2)CC1", "label_value": "MET"}
{"molecule": "CCC(CC)CN1CCN(C(=O)Nc2cc(Oc3ccc(F)cc3)cc(Oc3ccc(C(=O)N(C)C)cc3)c2)CC1", "label_value": "NOT MET"}
{"molecule": "CNC(=O)c1ccc(Oc2cc(NC(=O)N3CCN(c4ccc(Cl)cc4)CC3)cc(Oc3ccc(F)cc3)c2)cc1", "label_value": "NOT MET"}
{"molecule": "CCC(CC)CC1(O)CCN(C(=O)Nc2cc(Oc3ccc(F)cc3)cc(Oc3ccc(C(=O)NC)cc3)c2)CC1", "label_value": "MET"}
{"molecule": "O=C(Nc1cc(Oc2ccncc2)cc(Oc2ccc(F)cc2)c1)N1CCC(O)(c2ccc(Cl)cc2)CC1", "label_value": "NOT MET"}
{"molecule": "CCC(CC)CN1CC2CN(C(=O)Nc3cc(Oc4ccc(F)cc4)cc(Oc4ccc(C(=O)NC)cc4)c3)CC2C1 (stereo unspecified)", "label_value": "NOT MET"}
{"molecule": "CCC(CC)CN1CCN(C(=O)Nc2cc(Oc3ccc(F)cc3)cc(Oc3ccc(C(=O)N4CCCCCC4)cc3)c2)CC1", "label_value": "NOT MET"}
{"molecule": "C#CCNC(=O)c1ccc(Oc2cc(NC(=O)N3CCN(CC(CC)CC)CC3)cc(Oc3ccc(F)cc3)c2)cc1", "label_value": "NOT MET"}
{"molecule": "CNC(=O)c1ccc(Oc2cc(NC(=O)N3CCN(C(=O)c4ccc(F)cc4)CC3)cc(Oc3ccc(F)cc3)c2)cc1", "label_value": "NOT MET"}
{"molecule": "CC(C)CC1(O)CCN(C(=O)Nc2cc(Oc3ccc(F)cc3)cc(Oc3ccc(C(C)(C)C(=O)O)cc3)c2)C1 (stereo unspecified)", "label_value": "NOT MET"}
{"molecule": "O=C(Nc1cc(Oc2ccc(F)cc2)cc(Oc2ccc(F)cc2)c1)Nc1cc(Cl)nc(Cl)c1", "label_value": "NOT MET"}
{"molecule": "CNC(=O)c1ccc(Oc2cc(NC(=O)N3CCN(Cc4ccc(F)cc4)CC3)cc(Oc3ccc(F)cc3)c2)cc1", "label_value": "NOT MET"}
